Documented enrichment across a set of variants
B1: NF2 (merlin) isoform 7, human, full length (507 aa, lacks exons 2-3 = isoform-1 residues 39-121; exon-16 C-terminus), P35240-4 (parent)
chain: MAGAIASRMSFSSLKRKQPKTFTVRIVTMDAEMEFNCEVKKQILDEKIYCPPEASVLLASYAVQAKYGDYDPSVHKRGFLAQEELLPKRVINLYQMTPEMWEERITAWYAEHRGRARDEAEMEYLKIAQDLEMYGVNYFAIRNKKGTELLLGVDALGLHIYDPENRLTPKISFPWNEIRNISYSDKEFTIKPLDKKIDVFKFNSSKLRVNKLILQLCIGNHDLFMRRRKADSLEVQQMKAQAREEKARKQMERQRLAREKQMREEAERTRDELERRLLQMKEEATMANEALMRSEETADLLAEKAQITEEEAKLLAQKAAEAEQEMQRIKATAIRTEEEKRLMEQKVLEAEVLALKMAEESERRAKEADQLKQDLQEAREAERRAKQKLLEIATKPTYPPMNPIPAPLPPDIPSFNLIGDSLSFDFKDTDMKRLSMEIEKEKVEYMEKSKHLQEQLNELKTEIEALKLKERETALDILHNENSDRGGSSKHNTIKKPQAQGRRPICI

- Variants of: B1
- Test Name: reverse yeast two-hybrid deep mutational scan (rY2H-seq): NF2 isoform 7 mutant library as bait mated with wild-type prey strains; selection on medium lacking adenine for non-interacting pairs; NextSeq paired-end sequencing; enrichment vs …
- Cond: with EMILIN1 (elastin microfibril interfacer 1), Q9Y6C2; yeast diploids after mating (RBait_S3 x RPrey_S3), 30 °C, selection for reporter genes on NB agar; human ABL2 co-expressed as the kinase-dead K35M mutant …; HIGHER = WEAKER BINDING (the opposite of display enrichments): higher = stronger loss of interaction: reverse Y2H selects yeast in which bait and prey do NOT interact (growth without adenine), so a …; hits-only table; scale: rY2H score; numbering: uniprot, sequence starts at 1

>  <Variant Label>
L371K

>  <enrichment>
2.05

$$$$
>  <Variant Label>
T397A

>  <enrichment>
2.04

$$$$
>  <Variant Label>
R379A

>  <enrichment>
2.05

$$$$
>  <Variant Label>
Q279K

>  <enrichment>
2.01

$$$$
